// data source = ChEMBL document CHEMBL1909046

# measured_target: Cytochrome P450 2E1 (Homo sapiens, UniProt P05181); note: in other assays of this panel Not Active means under 50% inhibition at 10 µM
# Sequence (P05181 whole entry): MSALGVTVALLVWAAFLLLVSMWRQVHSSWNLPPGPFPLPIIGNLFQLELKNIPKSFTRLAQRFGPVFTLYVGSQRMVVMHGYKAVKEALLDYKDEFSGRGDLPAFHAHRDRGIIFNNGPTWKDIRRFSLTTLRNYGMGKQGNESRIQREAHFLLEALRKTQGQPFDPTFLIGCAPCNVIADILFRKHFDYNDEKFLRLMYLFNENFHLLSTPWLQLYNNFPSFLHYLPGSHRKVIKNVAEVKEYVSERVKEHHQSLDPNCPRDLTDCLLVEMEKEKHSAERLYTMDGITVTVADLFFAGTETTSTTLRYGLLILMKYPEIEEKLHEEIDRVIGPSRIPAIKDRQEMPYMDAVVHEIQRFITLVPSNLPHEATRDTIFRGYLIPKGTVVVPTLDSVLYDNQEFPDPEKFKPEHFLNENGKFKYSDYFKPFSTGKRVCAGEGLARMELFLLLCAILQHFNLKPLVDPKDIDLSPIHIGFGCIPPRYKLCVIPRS
# measurement_conditions: bti-tn-5b1-4
measurement_kind: IC50

Below, each entry is followed by its recorded IC50 result.
compound	measurement_kind	recorded_value
C#C[C@]1(O)CC[C@H]2[C@@H]3[C@H](C)CC4=C(CCC(=O)C4)[C@H]3CC[C@@]21C [TIBOLONE]	IC50	Not Active
O=C1CN(/N=C/c2ccc([N+](=O)[O-])o2)C(=O)N1 [NITROFURANTOIN]	IC50	Not Active
CNC[C@H](O)c1ccc(O)c(O)c1 [EPINEPHRINE]	IC50	Not Active
CC[C@H]1OC(=O)[C@H](C)[C@@H](O[C@H]2C[C@@](C)(OC)[C@@H](O)[C@H](C)O2)[C@H](C)[C@@H](O[C@@H]2O[C@H](C)C[C@H](N(C)C)[C@H]2O)[C@](C)(O)C[C@@H](C)C(=O)[C@H](C)[C@@H](O)[C@]1(C)O [ERYTHROMYCIN]	IC50	Not Active

Please state IC50 for every compound in the list that follows.
1. C[C@]12CCC(=O)C[C@@H]1CC[C@@H]1[C@@H]2CC[C@]2(C)[C@@H](O)CC[C@@H]12 [STANOLONE]
2. CCN(CCO)CCCC(C)Nc1ccnc2cc(Cl)ccc12 (configuration not stated) [HYDROXYCHLOROQUINE]
3. CC(CN1c2ccccc2Sc2ccccc21)N(C)C (configuration not stated) [PROMETHAZINE]

Result:
1. Not Active
2. Not Active
3. Not Active
